Listing of entries alongside the reported LC retention time.
assay: Thermo Scientific Acclaim RSLC 120 C18, 100 × 2.1 mm, 2.2 µm, 30 °C; A: 90% water + 10% methanol + 0.01% formic acid + 5 mM ammonium formate; B: methanol + 0.01% formic acid + 5 mM ammonium formate; gradient (min/%B) 0.1/1 3/39 14/99.9 16/99.9; conditions: stereoisomer not certain
Write the number in min without appending the unit.

Sample records with LC retention time:
>>> number("CC(C)CC(CN)CC(=O)O (configuration not stated)")
3.88
>>> number("CC(=O)Nc1ccc(O)cc1")
3.48
>>> number("CC(CN(C)C)CN1c2ccccc2Sc2ccccc21 (configuration not stated)")
8.1
>>> number("COc1cc(Cc2cnc(N)nc2N)cc(OC)c1OC")
4.06
>>> number("Nc1ccc(S(=O)(=O)Nc2nccs2)cc1")
3.63
>>> number("CCOP(=O)(OCC)OCC")
6.16

Query (compound): `Cc1c(NC=O)c(=O)n(-c2ccccc2)n1C` ; field requested: LC retention time
3.96

Query (compound): c1ccc2c(c1)CCCC2C1=NCCN1 (configuration not stated) ; field requested: LC retention time
4.47

Query (compound): CCOP(=S)(Oc1ccc([N+](=O)[O-])cc1)c1ccccc1 (configuration not stated) ; field requested: LC retention time
11.7

Query (compound): COc1cc2c(cc1OC)C13CCN4CC5=CCOC6CC(=O)N2C1C6C5CC43 (configuration not stated) ; field requested: LC retention time
4.21

Query (compound): `Cc1noc(NS(=O)(=O)c2ccc(N)cc2)c1C` ; field requested: LC retention time
4.71

Query (compound): `Cc1nnc(-c2ccccc2)c(=O)n1N` ; field requested: LC retention time
5.24
